- Test system: parental Ba/F3 cells
- protocol.details: CellTiter-Glo cell viability assay
- Format: cell-based, murine
- experimental.parameters: Mus musculus, BaF3, CTG, parental BaF3 cell line; read-out: EC50 BaF3
endpoint: EC50

Worked examples follow.
- molecule: "C=CC(=O)Nc1ccc2[nH]c(=O)n(C3CCN(Cc4ccc(-c5nc(C)c(=O)[nH]c5-c5ccccc5)cc4)CC3)c2c1 [15a, reference compound]"
  tgt: "parental Ba/F3 cells"
  EC50: "> 30 µM"
- molecule: "C=CC(=O)Nc1ccc2[nH]c(=O)n(C3CCN(Cc4ccc(-c5ncc(Cn6ccnc6)cc5-c5ccccc5)cc4)CC3)c2c1"
  tgt: "parental Ba/F3 cells"
  EC50: "> 30 µM"

Q) Value lookup for EC50; key = C=CC(=O)Nc1ccc2[nH]c(=O)n(C3CCN(Cc4ccc(-c5ncc(C(=O)Nc6cccnc6)cc5-c5ccccc5)cc4)CC3)c2c1
A) > 30 µM

---

- tgt: Akt2 (Homo sapiens)
- protocol.details: STK HTRF KinEASE activity-based assay (IC50)
- experimental.parameters: HTRF IC50 Akt2, Mean, mean of replicates
endpoint: pIC50
In textbook form, pIC50 equals minus log to base ten of the concentration in mol/L.

- molecule: "C=CC(=O)Nc1ccc2[nH]c(=O)n(C3CCN(Cc4ccc(-c5ncc(Cc6cn[nH]c6)cc5-c5ccccc5)cc4)CC3)c2c1 [compound 14]"
  measured.value: 7.62
- molecule: "C=CC(=O)Nc1ccc2[nH]c(=O)n(C3CCN(Cc4ccc(-c5ncc(C(=O)Nc6cccnc6)cc5-c5ccccc5)cc4)CC3)c2c1 [compound 22]"
  measured.value: 7.26

# context switch: different molecule, same pIC50
Q) Item: C=CC(=O)Nc1ccc2[nH]c(=O)n(C3CCN(Cc4ccc(-c5ncc(C(=O)NCC(C)C)cc5-c5ccccc5)cc4)CC3)c2c1 [compound 10] Test system: Akt2 (Homo sapiens) Read-out: pIC50 Value: ?
A) 7.03

---

Item-by-item account of kinact
- tgt: Akt2 (Homo sapiens, UniProt P31751)
- Sequence (P31751 whole entry): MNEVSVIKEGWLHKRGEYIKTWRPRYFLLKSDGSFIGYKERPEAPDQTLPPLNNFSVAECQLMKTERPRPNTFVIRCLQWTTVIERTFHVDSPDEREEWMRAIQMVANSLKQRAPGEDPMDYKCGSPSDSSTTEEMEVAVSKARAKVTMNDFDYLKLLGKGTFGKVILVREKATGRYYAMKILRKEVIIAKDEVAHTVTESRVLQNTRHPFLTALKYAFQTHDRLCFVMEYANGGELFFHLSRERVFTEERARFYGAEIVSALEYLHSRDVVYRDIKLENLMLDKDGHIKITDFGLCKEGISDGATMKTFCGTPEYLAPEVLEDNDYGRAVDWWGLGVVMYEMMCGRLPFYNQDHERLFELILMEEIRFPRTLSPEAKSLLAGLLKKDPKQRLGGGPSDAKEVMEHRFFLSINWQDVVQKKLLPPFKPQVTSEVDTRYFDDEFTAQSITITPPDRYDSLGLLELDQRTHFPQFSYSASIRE
- protocol.details: PhosphoSens continuous fluorometric kinetic enzyme assay
- experimental.parameters: read-out: kinact Akt2
# number only, unit s⁻¹ dropped from output

Worked examples follow.
- sample.smiles: "C=CC(=O)Nc1ccc2[nH]c(=O)n(C3CCN(Cc4ccc(-c5ncc(C(=O)NCC(C)C)cc5-c5ccccc5)cc4)CC3)c2c1"
  endpoint: "kinact"
  unit.abbreviation: "s⁻¹"
  measured.value: 0.0001
- sample.smiles: "C=CC(=O)Nc1ccc2[nH]c(=O)n(C3CCN(Cc4ccc(-c5ncc(C(=O)Nc6cnn(C)c6)cc5-c5ccccc5)cc4)CC3)c2c1"
  endpoint: "kinact"
  unit.abbreviation: "s⁻¹"
  measured.value: 0.000317

Q) Value lookup for kinact; key = C=CC(=O)Nc1ccc2[nH]c(=O)n(C3CCN(Cc4ccc(-c5ncc(Cc6ccc(N)nc6)cc5-c5ccccc5)cc4)CC3)c2c1
A) 0.00035

Q) Then this compound: C=CC(=O)Nc1ccc2[nH]c(=O)n(C3CCN(Cc4ccc(-c5ncc(C(=O)Nc6cccc(N)c6)cc5-c5ccccc5)cc4)CC3)c2c1
A) 0.000167

Q) Then this compound: C=CC(=O)Nc1ccc2[nH]c(=O)n(C3CCN(Cc4ccc(-c5ncc(Cn6ccnc6)cc5-c5ccccc5)cc4)CC3)c2c1
A) 0.0002

---

Item-by-item account of kinact/KI
- tgt: Akt2 (Homo sapiens)
- protocol.details: PhosphoSens continuous fluorometric kinetic enzyme assay
- experimental.parameters: read-out: kinact /Ki Akt2
# number only, unit M⁻¹ s⁻¹ dropped from output

Worked examples follow.
- sample.smiles: "C=CC(=O)Nc1ccc2[nH]c(=O)n(C3CCN(Cc4ccc(-c5ncc(Cc6ccc(N)nc6)cc5-c5ccccc5)cc4)CC3)c2c1"
  kinact/KI (M⁻¹ s⁻¹): 4000
- sample.smiles: "C=CC(=O)Nc1ccc2[nH]c(=O)n(C3CCN(Cc4ccc(-c5ncc(C(=O)Nc6cccc(N)c6)cc5-c5ccccc5)cc4)CC3)c2c1"
  kinact/KI (M⁻¹ s⁻¹): 15000
- sample.smiles: "C=CC(=O)Nc1ccc2[nH]c(=O)n(C3CCN(Cc4ccc(-c5ncc(C(=O)Nc6cccnc6)cc5-c5ccccc5)cc4)CC3)c2c1"
  kinact/KI (M⁻¹ s⁻¹): 23000
- sample.smiles: "C=CC(=O)Nc1ccc2[nH]c(=O)n(C3CCN(Cc4ccc(-c5ncc(C(=O)NCC(C)C)cc5-c5ccccc5)cc4)CC3)c2c1"
  kinact/KI (M⁻¹ s⁻¹): 25000

Q) Value lookup for kinact/KI; key = C=CC(=O)Nc1ccc2[nH]c(=O)n(C3CCN(Cc4ccc(-c5ncc(Cn6ccnc6)cc5-c5ccccc5)cc4)CC3)c2c1
A) 20000

Q) Then this compound: C=CC(=O)Nc1ccc2[nH]c(=O)n(C3CCN(Cc4ccc(-c5ncc(Cc6cn[nH]c6)cc5-c5ccccc5)cc4)CC3)c2c1
A) 25000

Q) Then this compound: C=CC(=O)Nc1ccc2[nH]c(=O)n(C3CCN(Cc4ccc(-c5ncc(C(=O)Nc6cnn(C)c6)cc5-c5ccccc5)cc4)CC3)c2c1
A) 8000

Q) Then this compound: C=CC(=O)Nc1ccc2[nH]c(=O)n(C3CCN(Cc4ccc(-c5ncc(Cc6cccnc6)cc5-c5ccccc5)cc4)CC3)c2c1
A) 12000

---

- tgt: Akt1 (Homo sapiens, UniProt P31749)
- Sequence (P31749 whole entry): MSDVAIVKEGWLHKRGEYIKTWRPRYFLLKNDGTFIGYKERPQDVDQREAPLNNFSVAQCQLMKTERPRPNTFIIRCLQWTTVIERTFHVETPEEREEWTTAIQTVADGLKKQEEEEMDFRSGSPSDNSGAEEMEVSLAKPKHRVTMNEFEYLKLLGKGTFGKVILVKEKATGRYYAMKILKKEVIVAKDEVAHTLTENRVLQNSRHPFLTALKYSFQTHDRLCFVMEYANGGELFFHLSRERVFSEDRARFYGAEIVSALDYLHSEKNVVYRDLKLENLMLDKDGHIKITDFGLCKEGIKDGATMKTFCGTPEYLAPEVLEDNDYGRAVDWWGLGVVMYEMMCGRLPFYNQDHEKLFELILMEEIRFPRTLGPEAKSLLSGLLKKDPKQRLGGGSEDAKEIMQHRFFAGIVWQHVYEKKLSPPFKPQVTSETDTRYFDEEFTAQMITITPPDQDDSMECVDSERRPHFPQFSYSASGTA
- protocol.details: STK HTRF KinEASE activity-based assay (IC50)
- experimental.parameters: read-out: IC50 Akt1; HTRF, ATP at KM, 1 h preincubation
endpoint: pIC50
In textbook form, pIC50 equals minus log to base ten of the concentration in mol/L.

Q) Item: C=CC(=O)Nc1ccc2[nH]c(=O)n(C3CCN(Cc4ccc(-c5ncc(C(=O)O)cc5-c5ccccc5)cc4)CC3)c2c1 Test system: Akt1 (Homo sapiens, UniProt P31749) Read-out: pIC50 Value: ?
A) 7.36

---

Item-by-item account of pKi
- tgt: Akt1 (Homo sapiens, UniProt P31749)
- protocol.details: PhosphoSens continuous fluorometric kinetic enzyme assay
- experimental.parameters: Ki Akt1
In textbook form, pKi equals minus log to base ten of the concentration in mol/L.

Q) Value lookup for pKi; key = C=CC(=O)Nc1ccc2[nH]c(=O)n(C3CCN(Cc4ccc(-c5ncc(C(=O)Nc6cccnc6)cc5-c5ccccc5)cc4)CC3)c2c1
A) 8.05

Q) Then this compound: C=CC(=O)Nc1ccc2[nH]c(=O)n(C3CCN(Cc4ccc(-c5ncccc5-c5ccccc5)cc4)CC3)c2c1
A) 8.22

Q) Then this compound: C=CC(=O)Nc1ccc2[nH]c(=O)n(C3CCN(Cc4ccc(-c5ncc(C(=O)Nc6cccc(N)c6)cc5-c5ccccc5)cc4)CC3)c2c1
A) 8.22

Q) Then this compound: C=CC(=O)Nc1ccc2[nH]c(=O)n(C3CCN(Cc4ccc(-c5ncc(C(=O)Nc6cnn(C)c6)cc5-c5ccccc5)cc4)CC3)c2c1
A) 8.10

Q) Then this compound: C=CC(=O)Nc1ccc2[nH]c(=O)n(C3CCN(Cc4ccc(-c5ncc(Cn6ccnc6)cc5-c5ccccc5)cc4)CC3)c2c1
A) 8.05

---

- tgt: Akt3 (Homo sapiens)
- Sequence (Q9Y243 whole entry): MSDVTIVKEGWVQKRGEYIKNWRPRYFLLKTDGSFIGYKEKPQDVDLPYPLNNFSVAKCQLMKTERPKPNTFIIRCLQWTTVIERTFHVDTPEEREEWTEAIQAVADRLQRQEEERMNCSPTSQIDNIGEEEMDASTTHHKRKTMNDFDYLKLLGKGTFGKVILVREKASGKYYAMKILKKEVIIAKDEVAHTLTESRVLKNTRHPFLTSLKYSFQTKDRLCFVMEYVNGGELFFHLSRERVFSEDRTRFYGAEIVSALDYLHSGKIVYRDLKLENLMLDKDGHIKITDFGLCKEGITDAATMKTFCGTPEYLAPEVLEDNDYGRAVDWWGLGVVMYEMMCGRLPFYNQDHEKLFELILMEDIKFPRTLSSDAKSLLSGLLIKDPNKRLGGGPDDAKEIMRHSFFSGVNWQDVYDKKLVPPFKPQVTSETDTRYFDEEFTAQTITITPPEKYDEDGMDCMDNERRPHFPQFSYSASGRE
- protocol.details: STK HTRF KinEASE activity-based assay (IC50)
- experimental.parameters: HTRF IC50 Akt3, Mean, mean of replicates
endpoint: pIC50
In textbook form, pIC50 equals minus log to base ten of the concentration in mol/L.

Worked examples follow.
- compound: "C=CC(=O)Nc1ccc2[nH]c(=O)n(C3CCN(Cc4ccc(-c5ncc(Cc6cnn(C)c6)cc5-c5ccccc5)cc4)CC3)c2c1 [compound 12]"
  tgt: "Akt3 (Homo sapiens)"
  pIC50: 6.22
- compound: "C=CC(=O)Nc1ccc2[nH]c(=O)n(C3CCN(Cc4ccc(-c5ncc(C)cc5-c5ccccc5)cc4)CC3)c2c1 [compound 2]"
  tgt: "Akt3 (Homo sapiens)"
  pIC50: 5.12
- compound: "C=CC(=O)Nc1ccc2[nH]c(=O)n(C3CCN(Cc4ccc(-c5ncc(C(=O)Nc6ccccn6)cc5-c5ccccc5)cc4)CC3)c2c1 [compound 23]"
  tgt: "Akt3 (Homo sapiens)"
  pIC50: 5.20
- compound: "C=CC(=O)Nc1ccc2[nH]c(=O)n(C3CCN(Cc4ccc(-c5ncc(Cn6ccnc6)cc5-c5ccccc5)cc4)CC3)c2c1 [compound 11]"
  tgt: "Akt3 (Homo sapiens)"
  pIC50: 5.72

Q) Value lookup for pIC50; key = C=CC(=O)Nc1ccc2[nH]c(=O)n(C3CCN(Cc4ccc(-c5ncc(Cc6cccc(O)c6)cc5-c5ccccc5)cc4)CC3)c2c1 [compound 16]
A) 5.27

---

- Tested on: Ba/F3^myr-Akt2 cells
- protocol.details: CellTiter-Glo cell viability assay
- experimental.parameters: Mus musculus, read-out: CTG BaF3myr-Akt2, Mean, mean of replicates
endpoint: log10(EC50) (log10 of the value in µM)
All values: log10 EC50 [µM].

- compound: "C=CC(=O)Nc1ccc2[nH]c(=O)n(C3CCN(Cc4ccc(-c5ncc(Cc6cccc(N)c6)cc5-c5ccccc5)cc4)CC3)c2c1"
  log10(EC50): 0.57
- compound: "C=CC(=O)Nc1ccc2[nH]c(=O)n(C3CCN(Cc4ccc(-c5ncccc5-c5ccccc5)cc4)CC3)c2c1"
  log10(EC50): 0.65
- compound: "C=CC(=O)Nc1ccc2[nH]c(=O)n(C3CCN(Cc4ccc(-c5ncc(Cc6ccc(C)o6)cc5-c5ccccc5)cc4)CC3)c2c1"
  log10(EC50): 1.16
- compound: "C=CC(=O)Nc1ccc2[nH]c(=O)n(C3CCN(Cc4ccc(-c5ncc(C)cc5-c5ccccc5)cc4)CC3)c2c1"
  log10(EC50): 0.45
- compound: "C=CC(=O)Nc1ccc2[nH]c(=O)n(C3CCN(Cc4ccc(-c5ncc(CNCC(C)C)cc5-c5ccccc5)cc4)CC3)c2c1"
  log10(EC50): 1.13

Q) Value lookup for log10(EC50); key = NC1(c2ccc(-c3nc4ccn5c(=O)[nH]nc5c4cc3-c3ccccc3)cc2)CCC1 [MK-2206, reference compound]
A) 0.13

Q) Then this compound: C=CC(=O)Nc1ccc2[nH]c(=O)n(C3CCN(Cc4ccc(-c5ncc(C(=O)Nc6cccnc6)cc5-c5ccccc5)cc4)CC3)c2c1
A) 0.57

Q) Then this compound: NC1(C(=O)N[C@@H](CCO)c2ccc(Cl)cc2)CCN(c2ncnc3[nH]ccc23)CC1 [Capivasertib, reference compound]
A) -0.03

Q) Then this compound: C=CC(=O)Nc1ccc2[nH]c(=O)n(C3CCN(Cc4ccc(-c5ncc(Cc6cn[nH]c6)cc5-c5ccccc5)cc4)CC3)c2c1
A) -0.28

Q) Then this compound: C=CC(=O)Nc1ccc2[nH]c(=O)n(C3CCN(Cc4ccc(-c5ncc(C(=O)N6CCCC6)cc5-c5ccccc5)cc4)CC3)c2c1
A) 1.11

Q) Then this compound: C=CC(=O)Nc1ccc2[nH]c(=O)n(C3CCN(Cc4ccc(-c5ncc(CN6CCCC6)cc5-c5ccccc5)cc4)CC3)c2c1
A) 0.25

Q) Then this compound: C=CC(=O)Nc1ccc2[nH]c(=O)n(C3CCN(Cc4ccc(-c5nc(C)c(=O)[nH]c5-c5ccccc5)cc4)CC3)c2c1 [15a, reference compound]
A) 1.17

Q) Then this compound: C=CC(=O)Nc1ccc2[nH]c(=O)n(C3CCN(Cc4ccc(-c5ncc(C(=O)Nc6ccccn6)cc5-c5ccccc5)cc4)CC3)c2c1
A) 0.44

These entries and their values trace back to paper PMC8421423.
